# TARGET_ENTITY: UniProt P29474
# Sequence (P29474 whole entry): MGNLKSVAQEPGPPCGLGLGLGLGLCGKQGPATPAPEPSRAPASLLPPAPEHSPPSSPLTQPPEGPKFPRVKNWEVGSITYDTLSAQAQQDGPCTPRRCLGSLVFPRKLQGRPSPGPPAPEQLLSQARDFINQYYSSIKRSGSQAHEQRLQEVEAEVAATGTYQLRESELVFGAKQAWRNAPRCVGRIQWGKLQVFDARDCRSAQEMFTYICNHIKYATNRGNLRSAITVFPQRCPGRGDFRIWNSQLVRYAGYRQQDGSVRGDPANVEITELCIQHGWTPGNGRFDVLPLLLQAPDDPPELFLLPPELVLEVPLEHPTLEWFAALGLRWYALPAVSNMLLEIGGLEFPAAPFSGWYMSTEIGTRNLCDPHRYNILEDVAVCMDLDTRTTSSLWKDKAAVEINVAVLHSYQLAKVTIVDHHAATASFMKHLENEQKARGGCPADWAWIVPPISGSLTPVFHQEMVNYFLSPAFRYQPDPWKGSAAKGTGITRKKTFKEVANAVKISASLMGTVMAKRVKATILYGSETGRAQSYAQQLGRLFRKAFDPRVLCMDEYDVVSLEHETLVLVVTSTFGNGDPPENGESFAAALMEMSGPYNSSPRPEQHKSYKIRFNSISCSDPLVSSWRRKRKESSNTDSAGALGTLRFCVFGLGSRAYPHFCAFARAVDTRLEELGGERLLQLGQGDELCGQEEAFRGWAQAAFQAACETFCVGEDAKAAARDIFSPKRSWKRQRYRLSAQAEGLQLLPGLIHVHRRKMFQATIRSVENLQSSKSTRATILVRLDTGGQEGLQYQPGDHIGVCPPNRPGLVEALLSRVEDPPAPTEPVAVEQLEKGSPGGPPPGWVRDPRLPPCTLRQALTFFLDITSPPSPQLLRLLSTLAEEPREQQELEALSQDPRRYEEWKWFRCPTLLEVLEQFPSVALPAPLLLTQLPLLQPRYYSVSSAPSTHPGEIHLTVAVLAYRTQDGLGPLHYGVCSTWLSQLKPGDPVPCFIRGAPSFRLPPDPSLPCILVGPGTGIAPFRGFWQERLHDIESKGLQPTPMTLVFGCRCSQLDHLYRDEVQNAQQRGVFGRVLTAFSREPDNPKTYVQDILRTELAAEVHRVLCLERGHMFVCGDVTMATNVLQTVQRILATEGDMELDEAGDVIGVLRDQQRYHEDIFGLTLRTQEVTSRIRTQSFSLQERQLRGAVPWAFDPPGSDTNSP
# METHOD: Inhibitory concentration against recombinant human Endothelial nitric oxide synthase
Please provide measured pIC50 for the entries that follow.
Numbers only, as −log10 of the molar value.

Previously resolved entries follow.
• NC1=Nc2cc(CCCNCc3cccc(Cl)c3)ccc2[C@H]2CCC[C@@H]12 = 5.03
• NC1=Nc2cc(CCNCc3cccc(Cl)c3)c(Cl)cc2[C@H]2CCC[C@@H]12 = 5.06

Now look at this entry.
Query string: // pIC50 lookup, key: `NC1=Nc2cc(CCNCc3cccc(Cl)c3)ccc2[C@H]2CCC[C@@H]12`
Result string: 5.17
